Provenance of the data: patent US20240131162A1

Subject Of Test: T1, CD16A F158 (human, UniProt P08637 17-208, limits assumed)
T1 construct: construct not described
Method: method not stated at Table 3
Listing of recorded binding relative to wild-type Fc by entry.
Quick reminder: number only, in fold, skip the unit.

Recorded binding relative to wild-type Fc for Fc variant F243L D270E P396L Q419H (other, UniProt P01857-1 104-330, looked up, domain: Fc) DKTHTCPPCPAPELLGGPSVFLLPPKPKDTLMISRTPEVTCVVVDVSHEEPEVKFNWYVDGVEVHNAKTKPREEQYNSTYRVVSVLTVLHQDWLNGKEYKCKVSNKALPAPIEKTISKAKGQPREPQVYTLPPSRDELTKNQVSLTCLVKGFYPSDIAVEWESNGQPENNYKTTPLVLDSDGSFFLYSKLTVDKSRWQHGNVFSCSVMHEALHNHYTQKSLSLSPGK , please?
1.15

Recorded binding relative to wild-type Fc for Fc variant F243I R292P Y300L V305I P396L (other, UniProt P01857-1 104-330, looked up, domain: Fc; 'F243I' as printed) DKTHTCPPCPAPELLGGPSVFLIPPKPKDTLMISRTPEVTCVVVDVSHEDPEVKFNWYVDGVEVHNAKTKPPEEQYNSTLRVVSILTVLHQDWLNGKEYKCKVSNKALPAPIEKTISKAKGQPREPQVYTLPPSRDELTKNQVSLTCLVKGFYPSDIAVEWESNGQPENNYKTTPLVLDSDGSFFLYSKLTVDKSRWQQGNVFSCSVMHEALHNHYTQKSLSLSPGK , please?
3.12
